details: 328.15 K; 55000 kPa; Liquid; Vibrating tube method
mass density overview

{"compound": "CCCC[n+]1cccc(C)c1.N#C[N-]C#N [1-butyl-3-methylpyridinium dicyanamide]", "mass density (kg/m3)": 1052.18}
{"compound": "CCCCCCCC[n+]1cccc(C)c1.F[B-](F)(F)F [N-octyl-3-methylpyridinium tetrafluoroborate]", "mass density (kg/m3)": 1102.61}
{"compound": "CCC[n+]1ccccc1Oc1ccc(Cl)c[n+]1CCOS(=O)(=O)[O-].F[B-](F)(F)F", "mass density (kg/m3)": 1255.02}
{"compound": "CCCC[n+]1ccccc1.O=S(=O)([O-])C(F)(F)F [1-butylpyridinium trifluoromethanesulfonate]", "mass density (kg/m3)": 1322}
{"compound": "CCCC[n+]1ccccc1.F[B-](F)(F)F [1-butylpyridinium tetrafluoroborate]", "mass density (kg/m3)": 1217.56}
